Target: cathepsin L (Homo sapiens)
Sequence (P07711 114-333, species assumed): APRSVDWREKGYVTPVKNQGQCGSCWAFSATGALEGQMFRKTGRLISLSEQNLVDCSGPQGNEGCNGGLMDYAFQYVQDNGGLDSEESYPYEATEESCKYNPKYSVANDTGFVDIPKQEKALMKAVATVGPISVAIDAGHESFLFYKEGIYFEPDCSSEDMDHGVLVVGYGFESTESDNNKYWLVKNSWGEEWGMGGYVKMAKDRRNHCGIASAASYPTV
Experiment: Inhibition of cathepsin L, fluorogenic substrate Z-Phe-Arg-AMC
Format: biochemical
Settings: 50 mM acetate, pH 5.5, 2.5 mM EDTA, 2.5 mM DTT; Dixon plot; read-out: cathepsin L (Ki μM)

| smiles input | Ki [µM] |
| --- | --- |
| O=C(N[C@@H](CCc1ccccc1)CCS(=O)(=O)c1ccccc1)[C@H](Cc1ccccc1)NC(=O)N1CCOCC1 | 10 |
| O=C(CCNC(=O)OCc1ccccc1)N[C@@H](Cc1ccccc1)C(=O)N[C@@H](CCc1ccccc1)CCS(=O)(=O)c1ccccc1 | 0.79 |
| COC(=O)CCC(=O)N[C@@H](Cc1ccccc1)C(=O)N[C@@H](CCc1ccccc1)CCS(=O)(=O)c1ccccc1 | 3.2 |
| O=C(O)CCC(=O)N[C@@H](Cc1ccccc1)C(=O)N[C@@H](CCc1ccccc1)CCS(=O)(=O)c1ccccc1 | 1 |
